The measurements presented in this section are drawn from paper PMC2358886.

Entries with reported Toxicity on HepG2 cells
experimental.readout: Toxicity

{"molecule": "C[C@]12CC[C@@H]3c4ccc(O)cc4CC[C@H]3[C@@H]1C[C@@H](O)C2=O [ES4, 1,3,5(10)-Estratrien-3,16α-diol-17-one]", "target.of.assay": "HepG2 cells", "experimental.readout": "Toxicity", "endpoint.result": "None"}
{"molecule": "C[C@@H](O)[C@H]1CC[C@H]2[C@@H]3CC[C@@H]4C[C@H](O)CC[C@]4(C)[C@H]3CC[C@]12C [PR23, 5β-Pregnan-3α,20β-diol]", "target.of.assay": "HepG2 cells", "experimental.readout": "Toxicity", "endpoint.result": "None"}
{"molecule": "CCC1(c2ccccc2)C(=O)NC(=O)NC1=O [MI25, Phenobarbital]", "target.of.assay": "HepG2 cells", "experimental.readout": "Toxicity", "endpoint.result": "None"}

* * *

- target.of.assay: human PXR (Homo sapiens, UniProt O75469)
- Sequence (O75469 1-434): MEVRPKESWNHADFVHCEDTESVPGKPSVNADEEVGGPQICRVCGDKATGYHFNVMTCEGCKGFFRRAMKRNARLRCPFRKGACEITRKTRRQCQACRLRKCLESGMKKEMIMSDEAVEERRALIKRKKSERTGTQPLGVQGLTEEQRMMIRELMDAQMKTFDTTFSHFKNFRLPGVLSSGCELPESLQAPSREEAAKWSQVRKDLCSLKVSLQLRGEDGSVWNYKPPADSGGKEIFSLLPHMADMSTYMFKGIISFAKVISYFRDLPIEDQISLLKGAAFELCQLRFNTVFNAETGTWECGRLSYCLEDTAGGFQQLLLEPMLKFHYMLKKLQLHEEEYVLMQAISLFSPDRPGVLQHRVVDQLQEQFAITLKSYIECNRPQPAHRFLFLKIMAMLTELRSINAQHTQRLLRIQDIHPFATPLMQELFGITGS
- measurement.description: PXR activation luciferase reporter assay, human PXR in HepG2-NTCP cells
- assay.setup: -log(EC50), EC50 in molar units, activation of human PXR
experimental.readout: hPXR Activity

{"smi": "CC(=O)[C@H]1[C@H](C#N)C[C@H]2[C@@H]3CC=C4C[C@@H](O)CC[C@]4(C)[C@H]3CC[C@@]21C", "target.of.assay": "human PXR (Homo sapiens, UniProt O75469)", "endpoint.result": "None"}
{"smi": "CC(C)CCC[C@@H](C)[C@H]1CC[C@H]2[C@@H]3CC[C@H]4C[C@H](O)CC[C@]4(C)[C@H]3CC[C@]12C", "target.of.assay": "human PXR (Homo sapiens, UniProt O75469)", "endpoint.result": "None"}
{"smi": "C[C@H](CCCO)[C@H]1CC[C@H]2[C@@H]3[C@H](O)C[C@H]4CC(=O)CC[C@]4(C)[C@H]3C[C@H](O)[C@]12C", "target.of.assay": "human PXR (Homo sapiens, UniProt O75469)", "endpoint.result": "None"}

* * *

- Test system: HepG2 cells

{"compound": "C[C@]12C[C@H](O)[C@H]3[C@@H](CCC4=CC(=O)CC[C@@]43C)[C@@H]1CC[C@@H]2C(=O)CO", "Toxicity": "None"}
{"compound": "C[C@]12CC[C@@H](O[C@@H]3O[C@H](C(=O)O)[C@@H](O)[C@H](O)[C@H]3O)C[C@H]1CC[C@@H]1[C@@H]2CC[C@]2(C)C(=O)CC[C@@H]12 [AN18, 5β-Androstan-3α-glucosiduronate-17-one]", "Toxicity": "None"}
{"compound": "C[C@H](CCC(=O)O)[C@H]1CC[C@H]2[C@@H]3CC[C@@H]4C[C@H](OS(=O)(=O)O)CC[C@]4(C)[C@H]3CC[C@]12C [BI41, 5β-Cholanic acid-3α-sulfate]", "Toxicity": "None"}

* * *

- target.of.assay: UniProtKB A5WYG8
- Sequence (A5WYG8 144-430): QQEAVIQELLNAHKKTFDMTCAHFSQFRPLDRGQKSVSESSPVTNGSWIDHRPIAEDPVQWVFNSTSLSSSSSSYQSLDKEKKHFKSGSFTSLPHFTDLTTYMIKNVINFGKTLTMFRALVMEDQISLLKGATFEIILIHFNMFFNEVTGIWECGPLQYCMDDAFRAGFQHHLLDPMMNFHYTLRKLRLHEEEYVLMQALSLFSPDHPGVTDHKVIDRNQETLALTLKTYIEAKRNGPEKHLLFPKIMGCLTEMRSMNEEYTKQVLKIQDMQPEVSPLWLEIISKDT
- assay.setup: zebrafish
experimental.readout: zfPXR Efficacy
Reply with just the number.

{"compound": "C[C@@]12C=CC[C@H]1[C@@H]1CCC3=CC(=O)CC[C@]3(C)[C@H]1CC2", "target.of.assay": "UniProtKB A5WYG8", "endpoint.result": 0.17}
{"compound": "CC(CCCC(CO)COS(=O)(=O)O)[C@H]1CCC2C3C(C[C@H](O)[C@@]21C)[C@@]1(C)CC[C@@H](O)C[C@@H]1C[C@H]3O (some centres unmarked)", "target.of.assay": "UniProtKB A5WYG8", "endpoint.result": 0.75}
{"compound": "CC(C(=O)O)c1ccc(-c2ccccc2)c(F)c1 (centres unmarked)", "target.of.assay": "UniProtKB A5WYG8", "endpoint.result": 0.53}

Read the next record carefully.
Fill: zfPXR Efficacy (UniProtKB A5WYG8) for this compound CCCOC(=O)c1ccc(O)cc1 [MI27, n-Propyl-4-hydroxybenzoate] 0.31

* * *

hPXR Efficacy values by entry
- target.of.assay: UniProtKB O75469
- assay.setup: human
Reply with just the number.

Worked cases, hPXR Efficacy given:
{"compound": "O=C1NC(=O)C(c2ccccc2)(c2ccccc2)N1 [MI26, Phenytoin]", "hPXR Efficacy": 0.52}
{"compound": "C[C@]12CC[C@H]3[C@@H](CCC4=CC(=O)CC[C@@]43C)[C@@H]1CC[C@@H]2C(=O)CO [PR9, 4-Pregnen-21-ol-3,20-dione]", "hPXR Efficacy": 0.3}
{"compound": "C[C@]12CCC(=O)C[C@@H]1CC[C@@H]1[C@@H]2CC[C@]2(C)C(=O)CC[C@@H]12 [AN2, 5α-Androstan-3,17-dione]", "hPXR Efficacy": 0.87}
{"compound": "C#C[C@]1(O)CC[C@H]2[C@@H]3CCc4cc(O)ccc4[C@H]3CC[C@@]21C [ES11]", "hPXR Efficacy": 0.68}
{"compound": "CC1=C(/C=C/C(C)=C/C=C/C(C)=C/CO)C(C)(C)CCC1 [MI31, Retinol]", "hPXR Efficacy": 0.20}

Fill: hPXR Efficacy (UniProtKB O75469) for this compound C[C@]12CC[C@H]3[C@@H](CCC4=CC(=O)CC[C@@]43C)[C@@H]1CC[C@H]2O [AN15, 4-Androsten-17α-ol-3-one] 0.9

Fill: hPXR Efficacy (UniProtKB O75469) for this compound C[C@@]12CCC[C@H]1[C@@H]1CC[C@H]3C[C@@H](O)CC[C@]3(C)[C@H]1CC2 [AN20, 5α-Androstan-3β-ol] 0.43

* * *

- target.of.assay: UniProtKB O75469
- Sequence (O75469 1-434): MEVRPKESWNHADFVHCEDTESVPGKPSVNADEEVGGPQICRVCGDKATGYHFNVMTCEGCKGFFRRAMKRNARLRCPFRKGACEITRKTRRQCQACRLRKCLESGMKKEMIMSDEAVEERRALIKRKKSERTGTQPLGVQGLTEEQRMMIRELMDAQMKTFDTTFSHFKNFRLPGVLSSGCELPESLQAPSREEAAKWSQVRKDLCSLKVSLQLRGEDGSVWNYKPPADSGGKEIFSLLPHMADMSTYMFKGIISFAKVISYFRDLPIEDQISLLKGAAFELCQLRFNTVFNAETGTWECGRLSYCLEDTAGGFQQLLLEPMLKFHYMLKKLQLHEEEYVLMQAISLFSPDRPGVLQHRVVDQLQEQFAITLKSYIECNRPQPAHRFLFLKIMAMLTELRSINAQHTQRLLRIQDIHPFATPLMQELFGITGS
- measurement.description: PXR activation luciferase reporter assay, human PXR in HepG2-NTCP cells
- assay.setup: hPXR Activity, -log(EC50), EC50 in molar units, activation of human PXR
experimental.readout: pEC50
API: returns pEC50 as number; meaning -log10 of concentration in mol/L.

Worked cases, pEC50 given:
{"compound": "CC(=O)O[C@H]1C(=O)[C@@]2(C)[C@H]([C@H](OC(=O)c3ccccc3)[C@]3(O)C[C@H](OC(=O)[C@H](O)[C@@H](NC(=O)c4ccccc4)c4ccccc4)C(C)=C1C3(C)C)[C@]1(OC(C)=O)CO[C@@H]1C[C@@H]2O [MI24, Paclitaxel]", "pEC50": 4.92}
{"compound": "C[C@@]12CCC[C@H]1[C@@H]1CC[C@H]3C[C@@H](O)CC[C@]3(C)[C@H]1CC2 [AN20, 5α-Androstan-3β-ol]", "pEC50": 6.10}

Could you please provide reported pEC50 for C[C@]12CCC(=O)C=C1CC[C@@H]1[C@@H]2CC[C@]2(C)C(=O)CC[C@@H]12 [AN7, 4-Androsten-3,17-dione] ? Thanks! 4.69

Could you please provide reported pEC50 for C[C@]12CCC(=O)C=C1CC[C@@H]1[C@@H]2C(=O)C[C@@]2(C)[C@H]1CC[C@]2(O)C(=O)CO [PR6, 4-Pregnen-17,21-diol-3,11,20-trione] ? Thanks! 4.16
